Assay: Inhibition of bakers yeast alpha-glucosidase by spectrophotometry
Design: species or system Saccharomyces cerevisiae
READOUT_KIND: IC50 (µM)

C=CC(C)(C)c1c(OC)cc(O)c2c(=O)c3c(CC=C(C)C)c(O)c(O)cc3oc12 [CUDRAXANTHONE D] = 16.2

I: C=CC(C)(C)c1c(O)cc(O)c2c(=O)c3cc(O)c4c(c3oc12)C=CC(C)(C)O4
II: C=CC(C)(C)c1c(O)cc2oc3cc(O)c(O)c(CC=C(C)C)c3c(=O)c2c1O
III: C=CC(C)(C)c1c(O)cc2oc3c(CC=C(C)C)c(O)c(O)cc3c(=O)c2c1O [CUDRAXANTHONE L]
Request: List the 3 entries from lowest IC50 to highest IC50 value. List the labels, following the order given in the request.
Response: I, II, III
